Origin of the recorded values: ChEMBL document CHEMBL4823313

- ASSAY: Cmax in CD-1 mouse at 50 mg/kg, po by LC-MS/MS analysis
- Assay type: ADME, organism-based
- Set-up: route oral, dose 50 mg/kg
- PROTOCOL_CONDITIONS: in vivo
Item-by-item account of Cmax
// unit must come after the numeric part

Solved entries (count: 2):
In [3]: df
Out[3]:
                              smiles_record  measurement
0  CC(C)C(=O)O[C@H]1[C@@H](O)[C@](C#N)(c2ccc3c(N)ncnn23)O[C@@H]1CO   7880 ng/mL
1  CC(C)C(=O)OC[C@H]1O[C@@](C#N)(c2ccc3c(N)ncnn23)[C@H](O)[C@@H]1O   6680 ng/mL

### Prompt What value of measured Cmax is listed for CC(C)[C@H](N)C(=O)O[C@H]1[C@@H](O)[C@](C#N)(c2ccc3c(N)ncnn23)O[C@@H]1CO.Cl.Cl ?
### Response 1510 ng/mL

* * *

- ASSAY: Stability of compound in stimulated gastric fluid incubated for 24 hrs by HPLC analysis
- Type: ADME
- PROTOCOL_CONDITIONS: simulated gi fluid
QUANTITY_NAME: Stabilty

In [3]: df
Out[3]:
                              smiles_record  quantity_name  measurement
0  CC(C)C(=O)OC[C@H]1O[C@@](C#N)(c2ccc3c(N)ncnn23)[C@H](O)[C@@H]1O       Stabilty       Stable
1  CC(C)C(=O)O[C@H]1[C@@H](O)[C@](C#N)(c2ccc3c(N)ncnn23)O[C@@H]1CO       Stabilty       Stable
2  CC(C)[C@H](N)C(=O)O[C@H]1[C@@H](O)[C@](C#N)(c2ccc3c(N)ncnn23)O[C@@H]1CO.Cl.Cl       Stabilty       Stable
3  CC(C)[C@H](N)C(=O)OC[C@H]1O[C@@](C#N)(c2ccc3c(N)ncnn23)[C@H](O)[C@@H]1O       Stabilty       Stable

* * *

Item-by-item account of AUC(0-t)
- ASSAY: AUClast in CD-1 mouse at 50 mg/kg, po by LC-MS/MS analysis
- Assay type: ADME, organism-based
- Parameters: route oral, time 0 - last, dose 50 mg/kg
- PROTOCOL_CONDITIONS: in vivo
Could you give me the number in ng·h/mL? Just the number is fine.

Solved entries (count: 2):
>>> df
                              smiles_record  quantity_name  result_unit  measurement
0  CC(C)[C@H](N)C(=O)O[C@H]1[C@@H](O)[C@](C#N)(c2ccc3c(N)ncnn23)O[C@@H]1CO.Cl.Cl       AUC(0-t)      ng·h/mL         2980
1  CC(C)C(=O)OC[C@H]1O[C@@](C#N)(c2ccc3c(N)ncnn23)[C@H](O)[C@@H]1O       AUC(0-t)      ng·h/mL        13800

### Prompt What value of measured AUC(0-t) is listed for Br.CC(C)C(=O)OC[C@H]1O[C@@](C#N)(c2ccc3c(N)ncnn23)[C@H](OC(=O)C(C)C)[C@@H]1OC(=O)C(C)C ?
### Response 7110

### Prompt Now the compound CC(C)C(=O)O[C@H]1[C@@H](O)[C@](C#N)(c2ccc3c(N)ncnn23)O[C@@H]1CO
### Response 14600

* * *

- ASSAY: Stability of compound in stimulated intestinal fluid assessed as parent compound remaining measured after 4 hrs by HPLC analysis
- Assay type: ADME
- PROTOCOL_CONDITIONS: simulated intestinal fluid, read-out: Stabilty
Item-by-item account of remaining at 4 h
Could you give me the number in %? Just the number is fine.

Solved entries (count: 3):
                              smiles_record  result_unit  measurement
0  CC(C)[C@H](N)C(=O)O[C@H]1[C@@H](O)[C@](C#N)(c2ccc3c(N)ncnn23)O[C@@H]1CO.Cl.Cl            %           34
1  CC(C)[C@H](N)C(=O)OC[C@H]1O[C@@](C#N)(c2ccc3c(N)ncnn23)[C@H](O)[C@@H]1O            %            9
2  CC(C)C(=O)O[C@H]1[C@@H](O)[C@](C#N)(c2ccc3c(N)ncnn23)O[C@@H]1CO            %          100

### Prompt What value of measured remaining at 4 h is listed for CC(C)C(=O)OC[C@H]1O[C@@](C#N)(c2ccc3c(N)ncnn23)[C@H](O)[C@@H]1O ?
### Response 2

* * *

- ASSAY: Observed volume of distribution at steady state in CD-1 mouse at 25 mg/kg, iv by LC-MS/MS analysis
- Format: ADME, organism-based
- PROTOCOL_CONDITIONS: CD-1, mouse, in vivo, read-out: Vdss
QUANTITY_NAME: Vd
// unit must come after the numeric part

In [3]: df
Out[3]:
                              smiles_record  measurement
0  CC(C)C(=O)OC[C@H]1O[C@@](C#N)(c2ccc3c(N)ncnn23)[C@H](O)[C@@H]1O    4.17 L/kg

Here is another compound to look at.
### Prompt What value of measured Vd is listed for CC(C)C(=O)O[C@H]1[C@@H](O)[C@](C#N)(c2ccc3c(N)ncnn23)O[C@@H]1CO ?
### Response 2.59 L/kg

* * *

- Tested on: SARS-CoV-2
- ASSAY: Antiviral activity against SARS-CoV-2 nCoV-2019BetaCoV/Wuhan/WIV04/ infected in African green monkey Vero E6 cells assessed as inhibition of viral replication at 5 uM when host cells were pretreated for 1 hr followed by viral infection then followed by removal of infected supernatant and subsequent culture addition with fresh compounds and measured after 24 hrs by qRT-PCR method relative to control
- Type: functional
- PROTOCOL_CONDITIONS: Severe acute respiratory syndrome coronavirus 2, nCoV-2019BetaCoV/Wuhan/WIV04/, Vero C1008, time 25 hrs
QUANTITY_NAME: inhibition at 5 µM

>>> df
                                   compound  measurement
0  N#C/C=C/[C@@]1(c2ccc3c(N)ncnn23)O[C@H](CO)[C@@H](O)[C@H]1O        < 10%

### Prompt What value of measured inhibition at 5 µM is listed for CCC(CC)COC(=O)[C@H](C)N[P@](=O)(OC[C@H]1O[C@@](C#N)(c2ccc3c(N)ncnn23)[C@H](O)[C@@H]1O)Oc1ccccc1 ?
### Response 65%

### Prompt Now the compound Nc1ncnn2c([C@]3(CO)O[C@H](CO)[C@@H](O)[C@H]3O)ccc12
### Response < 10%

### Prompt Now the compound CC(C)C(=O)OC[C@H]1O[C@@](C#N)(c2ccc3c(N)ncnn23)[C@H](O)[C@@H]1O [OBELDESIVIR]
### Response 99%

### Prompt Now the compound C=C(C)[C@@]1(c2ccc3c(N)ncnn23)O[C@H](CO)[C@@H](O)[C@H]1O
### Response < 10%

### Prompt Now the compound CC(=O)[C@@]1(c2ccc3c(N)ncnn23)O[C@H](CO)[C@@H](O)[C@H]1O
### Response < 10%

### Prompt Now the compound N#C[C@@]1(c2cc(Cl)c3c(N)ncnn23)O[C@H](CO)[C@@H](O)[C@H]1O
### Response < 10%

### Prompt Now the compound NC(=O)[C@@]1(c2ccc3c(N)ncnn23)O[C@H](CO)[C@@H](O)[C@H]1O
### Response < 10%

### Prompt Now the compound N#C[C@@]1(c2cc(I)c3c(N)ncnn23)O[C@H](CO)[C@@H](O)[C@H]1O
### Response < 10%

### Prompt Now the compound N#C[C@@]1(c2ccc3c(O)ncnn23)O[C@H](CO)[C@@H](O)[C@H]1O
### Response < 10%

### Prompt Now the compound CO[C@@H]1[C@H](O)[C@@H](CO)O[C@@]1(C#N)c1ccc2c(N)ncnn12
### Response < 10%

### Prompt Now the compound CC(C)C(=O)O[C@H]1[C@@H](OC(=O)C(C)C)[C@](C#N)(c2ccc3c(N)ncnn23)O[C@@H]1CO
### Response 99%

### Prompt Now the compound Nc1ncnn2c([C@@H]3O[C@H](CO)[C@@H](O)C3(F)F)ccc12
### Response < 10%

### Prompt Now the compound CC(C)C(=O)O[C@H]1[C@@H](O)[C@](C#N)(c2ccc3c(N)ncnn23)O[C@@H]1CO
### Response 99%

### Prompt Now the compound N#C[C@@]1(c2ccc3c(N)ncnn23)O[C@H](CO)[C@@H](O)[C@H]1O [GS-441524]
### Response 99%

### Prompt Now the compound Nc1ncnn2c([C@@H]3O[C@H](CO)[C@@H](O)[C@H]3F)ccc12
### Response < 10%

### Prompt Now the compound N#Cc1cc([C@]2(C#N)O[C@H](CO)[C@@H](O)[C@H]2O)n2ncnc(N)c12
### Response < 10%
